Answer each item with its documented log10 of TGI.
- Tested on: KM12 colon
- Method: NCI tumour cell line growth inhibition, 48 h
// do not treat as linear: log10 of TGI, unit µM

Sample answers from the record:
{"Compound": "COc1ccc2c(C)cc(N/N=C/c3sccc3C)nc2c1", "Reported Measurement": 1.34}
{"Compound": "C[N+](C)(C)CCC(=O)N1C/C(=C\\c2ccccc2)C(=O)/C(=C/c2ccccc2)C1", "Reported Measurement": 0.49}
{"Compound": "CN(C)c1ccc(/C=C/C(=O)c2ccccc2)cc1Br", "Reported Measurement": 1.52}
{"Compound": "C/C(=N\\Nc1nc2ccccc2[nH]1)c1ccncn1", "Reported Measurement": 1.56}
{"Compound": "COc1c(OC(C)=O)c(OC(C)=O)cc2c1-c1ccc(OC)c(=O)cc1C(NC(C)=O)CC2 (centres undefined)", "Reported Measurement": -0.26}

Turning to the following compound.
Lookup: Fill blank: measured log10 of TGI of the compound "Cn1c(=O)cc(NNc2ccc(Br)cc2)[nH]c1=O" is ____.
Found: 1.02

* * *

- System: EKVX NSCLC
- Method: NCI tumour cell line growth inhibition, 48 h; in the data active means GI50 below about 0.43 µM; inactive means the rest
// classify into active, inactive

Record excerpt, results attached:
{"Compound": "CCOC(=O)c1c[nH]c2c(OCc3ccccc3)c3ccccc3c(O)c2c1=O", "Label": "inactive"}
{"Compound": "O=C(CCc1nnc(-c2c(Cl)cccc2Cl)o1)c1nc2ccccc2[nH]1", "Label": "inactive"}
{"Compound": "COc1ccc(Nc2c3c4c(cccc4[nH]c2=O)C(=O)c2ccccc2-3)cc1", "Label": "active"}
{"Compound": "O=C(O)c1cc(N/C=C2\\C(=O)c3ccccc3OC2O)ccc1O (stereo not given)", "Label": "inactive"}
{"Compound": "O=C(CSc1nc2ccc([N+](=O)[O-])cc2[nH]1)Nc1cccc(Cl)c1", "Label": "inactive"}
{"Compound": "CN(C)CCCNC(=O)c1cc(NC(=O)CCNC(=O)c2ccc3c(c2)C(=O)c2ccccc2C3=O)cn1C", "Label": "inactive"}
{"Compound": "CCOC(=O)C1=C(N)Oc2c(sc3c(C)cccc23)C1c1ccc(Cl)cc1 (stereo not given)", "Label": "inactive"}
{"Compound": "COc1ccc(-c2cc(-c3ccc(O)cc3)nc3nc(=S)[nH]c(N)c23)cc1", "Label": "inactive"}
{"Compound": "O=C1Nc2ccccc2C1(c1ccc(O)c(F)c1)c1ccc(O)c(F)c1", "Label": "inactive"}

Let us examine a further case.
Lookup: Lab log entry: "O=S(=O)(O)c1ccc(Cl)cc1.[Cd]" — outcome as called in the assay?
Found: inactive

* * *

- Test system: NCI-H23 lung
- Method: NCI tumour cell line growth inhibition, 48 h
Please go through the items and note down their TGI.
Numbers only, in µM.

Below, 3 molecules whose answers are already recorded.
{"Structure As Smiles": "CN(C)c1ccccc1CC(c1c[nH]c2ccccc12)c1c[nH]c2ccccc12", "System": "NCI-H23 lung", "Recorded Endpoint": "TGI", "Reported Measurement": 21.3}
{"Structure As Smiles": "CC(C)=CCC[C@](C)(O)[C@H]1CC[C@]2(C)[C@@H]1[C@H](O)C[C@@H]1[C@@]3(C)CC[C@H](O[C@@H]4O[C@H](CO)[C@@H](O)[C@H](O)[C@H]4O)C(C)(C)[C@@H]3CC[C@]12C", "System": "NCI-H23 lung", "Recorded Endpoint": "TGI", "Reported Measurement": 38}
{"Structure As Smiles": "C=C1C(=O)O[C@H]2[C@H]1CC/C(COC(=O)/C=C\\C(=O)NCc1ccc(Cn3c(=O)sn(-c4ccc(OC)cc4)c3=O)cc1)=C\\CC[C@@]1(C)O[C@@H]21", "System": "NCI-H23 lung", "Recorded Endpoint": "TGI", "Reported Measurement": 1.84}

Then this molecule:
Lookup: Given "CCCn1cc(C2=C(c3cn(C)c4ccccc34)C(=O)NC2=O)c2ccccc21" , state its recorded TGI.
Found: 17.8

* * *

- Tested on: A498 renal
- Method: NCI tumour cell line growth inhibition, 48 h; in the data active = GI50 below about 0.43 µM; inactive = the rest
Response enum: true (1) = active, false (0) = inactive

Example entries begin here.
{"Molecule": "CC1(C)CC[C@]2(C(=O)n3ccnc3)CC[C@]3(C)[C@H](C(=O)C=C4[C@@]5(C)C=C(C#N)C(=O)C(C)(C)[C@@H]5CC[C@]43C)[C@@H]2C1", "Label": "true (1)"}
{"Molecule": "COc1cc(-c2cc(/C=C/C(=O)c3ccc4c(c3)OCO4)[nH]n2)cc(OC)c1OC", "Label": "false (0)"}
{"Molecule": "Cn1cc(C2=C(c3c4n(c5ccccc35)CC(CN)C4)C(=O)NC2=O)c2ccccc21 (centres undefined)", "Label": "false (0)"}

Lookup: Returns: the outcome recorded for CC(C)(C)C(=O)OCOP(=O)(OCOC(=O)C(C)(C)C)C1CCCN(OC(=O)c2ccccc2)C1=O (centres undefined) in this assay.
Found: true (1)

Lookup: Note, next up: "O=C(Nc1ncc(Cc2ccccc2)s1)c1ccc2c(c1)OCCO2"
Found: true (1)

Lookup: Now give it for "COc1cc(C(=O)NC2CCN(C)CC2)ccc1Nc1ncc2c(n1)N(C1CCCC1)CC(F)(F)C(=O)N2C" too.
Found: true (1)

Lookup: Likewise for "O=C(/C=C/C=C/c1ccccc1)c1ccc(Nc2nc(Nc3ccccc3)nc(Nc3ccccc3)n2)cc1" ?
Found: false (0)

Lookup: Entry to check: "COc1ccccc1CNCCCN1C(=O)c2ccc3c4c(ccc(c24)C1=O)C(=O)N(CCCNCCCCNCCCCN)C3=O"
Found: false (0)

Lookup: Repeat for the following molecule: "NC(=O)c1nnn(Cc2cc(Cl)c(C(=O)c3ccc(Cl)cc3)c(Cl)c2)c1N"
Found: false (0)

* * *

Please provide measured TGI for the entries that follow.
- Tested on: OVCAR-3 ovarian
- Method: NCI tumour cell line growth inhibition, 48 h

{"Molecule": "Fc1ccc(CNc2c3ccccc3nc3ccccc23)cc1", "System": "OVCAR-3 ovarian", "TGI": "5.43 µM"}
{"Molecule": "O=C1C=C(c2c(-c3ccccc3)[nH]c3ccccc23)C(=O)N1c1ccccc1", "System": "OVCAR-3 ovarian", "TGI": "15.8 µM"}
{"Molecule": "O=C(CCc1nnc2s/c(=C\\c3ccc4c(c3)OCO4)c(=O)n12)Nc1cc(Cl)ccc1Cl", "System": "OVCAR-3 ovarian", "TGI": "> 100 µM"}
{"Molecule": "CC(C)c1ccc2c(N=Nc3ccc(S(N)(=O)=O)cc3)c(O)[nH]c2c1", "System": "OVCAR-3 ovarian", "TGI": "18.6 µM"}
{"Molecule": "COc1ccc(/C=C/C(=O)c2nc3ccccc3[nH]2)cc1", "System": "OVCAR-3 ovarian", "TGI": "48.5 µM"}

Consider the following items and state reported TGI for each.
1. CC1(C)CC(=O)C(C(c2cccc(O)c2O)C2C(=O)CC(C)(C)CC2=O)C(=O)C1
2. CC(=O)O[C@H]1C(=O)[C@@]2(C)[C@H]([C@H](OC(=O)c3ccccc3)[C@]3(O)C[C@H](OC(=O)[C@H](O)[C@@H](NC(=O)c4ccccc4)C4CCCCC4)C(C)=C1C3(C)C)[C@]1(OC(C)=O)CO[C@@H]1C[C@@H]2O
3. CC(=O)Oc1ccc2ccc(=O)oc2c1OC(C)=O
4. C[C@]12CCC3[C@@H](C[C@H]4OC(=O)[C@@]35CCC(=O)C=C45)C1CCC2=O (some centres undefined)

Found:
1. > 100 µM
2. < 0.01 µM
3. > 100 µM
4. > 100 µM

* * *

- Test system: SNB-75 CNS
- Method: NCI tumour cell line growth inhibition, 48 h
Would you kindly list log10 of TGI for each of these compounds?
# values: log10(TGI), units µM

{"Compound": "C=C1C(=O)O[C@H]2[C@H]1CC/C(C=Nc1ccc(C(F)(F)F)cc1N)=C\\CC[C@@]1(C)O[C@@H]21", "Reported Measurement": 1.37}
{"Compound": "O=C(Nc1ncc(Cc2ccccc2)s1)c1ccc2c(c1)OCCO2", "Reported Measurement": 0.22}
{"Compound": "COc1cc(C2c3cc4c(cc3OC3(O)COC(=O)C23)OCO4)cc(OC)c1OC (centres undefined)", "Reported Measurement": 1.74}

For the 2 compounds below, give their log10 of TGI values.
1. CN(C)c1ccc(/C=C(\C#N)c2cc3ccccc3n2C)cc1
2. C=C1C(=O)O[C@H]2[C@H]1CC/C(COC(=O)/C=C\C(=O)NCc1ccc(Cn3c(=O)sn(-c4ccc(OC)cc4)c3=O)cc1)=C\CC[C@@]1(C)O[C@@H]21

Found:
1: 0.24; 2: 0.09

* * *

- Test system: SNB-19 CNS
- Method: NCI tumour cell line growth inhibition, 48 h
Please go through the items and note down their TGI.

{"Molecule": "CCCN(CCC)c1ccc(C=O)cc1", "TGI": "> 100 µM"}
{"Molecule": "CCOC(=O)NC(=O)c1cn(CCCCCOC(=O)NCCCCCCNC(=O)OCCCCCn2cc(C(=O)NC(=O)OCC)c(=O)[nH]c2=O)c(=O)[nH]c1=O", "TGI": "> 100 µM"}
{"Molecule": "Oc1ccc2ccccc2c1-c1c(Nc2ccccc2)ccc2ccccc12", "TGI": "37.4 µM"}
{"Molecule": "[N-]=[N+]=Nc1ccccc1-[n+]1noc([O-])c1Br", "TGI": "> 100 µM"}
{"Molecule": "COc1ccc(-c2nc(N(C)C)c3ccccc3n2)cc1", "TGI": "> 100 µM"}

The following molecules each have a reported value; give each one's TGI.
1. COc1ccc(N2C(=O)C3c4[nH]c5ccccc5c4C4CCCCCCCC4C3C2=O)cc1 (stereo unspecified)
2. Cc1nc2c(O)cccc2c(=O)[nH]1
3. C=C1C(=O)OC2C[C@H](C)C3CC(=O)C(C)=C3CC12 (stereo partly specified)

Found:
> 10 µM
> 1000 µM
> 100 µM

Please give TGI, item by item, for the list that follows.
1. COc1nc(/C=N/NC(N)=S)nc(OC)n1
2. O=C1NCC2(CCN(Cc3ccccc3)CC2)N1
3. COc1ccc2c(CC(=O)O)cc(=O)oc2c1

Found:
1. > 100 µM
2. > 100 µM
3. > 100 µM
